- System: Nucleic Acid
- assayRemarks: Inhibitory concentration against ethidium bromide binding to DNA [poly(dA-dT)]
- Type: nucleic-acid assay
Entries and their C50 values follow.
property: C50 (µM)

* Cl.O=C(CC(CC(=O)NCCNc1c2ccccc2nc2ccccc12)Nc1c2ccccc2nc2ccccc12)NCCNc1c2ccccc2nc2ccccc12 | 0.43
* Cl.O=C(CCCC(=O)NCCCCNc1c2ccccc2nc2ccccc12)NCCCCNc1c2ccccc2nc2ccccc12 | 0.28
* NC(CC(=O)NCCCNc1c2ccccc2nc2ccccc12)CC(=O)NCCCNc1c2ccccc2nc2ccccc12 | 0.09
* Cl.O=C(CC(CC(=O)NCCCCCNc1c2ccccc2nc2ccccc12)Nc1c2ccccc2nc2ccccc12)NCCCCCNc1c2ccccc2nc2ccccc12 | 0.35
* Cl.O=C(CCCC(=O)NCCNc1c2ccccc2nc2ccccc12)NCCNc1c2ccccc2nc2ccccc12 | 0.3

Attribution: ChEMBL document CHEMBL1123540
